These data points were gathered from patent US4323550A.

# test name: Acute oral toxicity in mice
# Type: in vivo
# recorded conditions: in vivo, mouse, read-out: dose up to which no symptom occurs
parameter measured: NOAEL at 240 h

Prompt: For OCCN1CCN(CCO)CC1 , what is its reported NOAEL at 240 h?
Response: ≥ 400 mg/kg

###

# test name: Acute oral toxicity in mice
# Assay type: in vivo
# recorded conditions: in vivo, mouse, Lichfield and Wilcoxon
parameter measured: LD50 at 240 h (mg/kg)
The reply should be a number in mg/kg, with the unit left off.

Prompt: For CCCCCCCCCCCCCCCCN [ELMEX 242, fluorohydrate of hexadecylamine] , what is its reported LD50 at 240 h?
Response: 1250
